Hey, just so you know, these numbers are from patent US20250017856A1.

# ASSAY_INFO: RNA encapsulation efficiency (modified Quant-iT RiboGreen assay) and loading
# Type: physicochemical
# CONDITION: FxNP, sinLuc, DOPC
EXPERIMENTAL_READOUT: Small molecule drug mass % (%)

Query :: Fill in the blank: the reported Small molecule drug mass % of CN(C)CC(=O)N=S(=O)(CCCCCCCCCC1Cc2cc(O)ccc2C2CCC3(C)C(O)CCC3C12)CCCC(F)(F)C(F)(F)F (stereo not drawn) is ____.
Result :: 54.3

Query :: Fill in the blank: the reported Small molecule drug mass % of CC12CCC3c4ccc(O)cc4CC(CCCCCCCCCS(=O)(CCCC(F)(F)C(F)(F)F)=NC(=O)CCN4CCCCC4)C3C1CCC2O (stereo not drawn) is ____.
Result :: 56.0

Query :: Fill in the blank: the reported Small molecule drug mass % of CC12CCC3c4ccc(O)cc4CC(CCCCCCCCCS(=O)(CCCC(F)(F)C(F)(F)F)=NC(=O)CCn4ccnc4)C3C1CCC2O (stereo not drawn) is ____.
Result :: 56.1

* * *

# ASSAY_INFO: Zeta potential (Malvern Zetasizer)
# Type: physicochemical
# CONDITION: FxNP, siFLuc, DOPC
EXPERIMENTAL_READOUT: Zeta potential (mV)

Record excerpt, results attached:
Query :: Fill in the blank: the reported Zeta potential (mV) of CC12CCC3c4ccc(O)cc4CC(CCCCCCCCCS(=O)(CCCC(F)(F)C(F)(F)F)=NC(=O)CCN4CCOCC4)C3C1CCC2O (stereo not shown) is ____.
Result :: −8.00

Query :: Fill in the blank: the reported Zeta potential (mV) of CC12CCC3c4ccc(O)cc4CC(CCCCCCCCCS(=O)(CCCC(F)(F)C(F)(F)F)=NC(=O)CCn4ccnc4)C3C1CCC2O (stereo not shown) is ____.
Result :: −8.02

(I) CC12CCC3c4ccc(O)cc4CC(CCCCCCCCCS(=O)(CCCC(F)(F)C(F)(F)F)=NC(=O)CCN4CCCCC4)C3C1CCC2O (stereo not shown)
(II) CN(C)CC(=O)N=S(=O)(CCCCCCCCCC1Cc2cc(O)ccc2C2CCC3(C)C(O)CCC3C12)CCCC(F)(F)C(F)(F)F (stereo not shown)
Query :: Param pair: I , II . Output: the one whose Zeta potential (mV) is numerically greater. Lab log: write the label of the selected item as the result.
Result :: I
(I: 3.39 mV, II: −5.09 mV)

* * *

# ASSAY_INFO: Hydrodynamic diameter and polydispersity index by dynamic light scattering
# Assay type: physicochemical
# CONDITION: FxNP, sinLuc, DOPC
EXPERIMENTAL_READOUT: PDI

Record excerpt, results attached:
Query :: Fill in the blank: the reported PDI of CC12CCC3c4ccc(O)cc4CC(CCCCCCCCCS(=O)(CCCC(F)(F)C(F)(F)F)=NC(=O)CCN4CCCCC4)C3C1CCC2O (stereo not shown) is ____.
Result :: 0.042

Query :: Fill in the blank: the reported PDI of CC12CCC3c4ccc(O)cc4CC(CCCCCCCCCS(=O)(CCCC(F)(F)C(F)(F)F)=NC(=O)CCn4ccnc4)C3C1CCC2O (stereo not shown) is ____.
Result :: 0.072

Query :: Fill in the blank: the reported PDI of CC12CCC3c4ccc(O)cc4CC(CCCCCCCCCS(=O)(CCCC(F)(F)C(F)(F)F)=NC(=O)CN4CCCCC4)C3C1CCC2O (stereo not shown) is ____.
Result :: 0.066

Query :: Fill in the blank: the reported PDI of CC12CCC3c4ccc(O)cc4CC(CCCCCCCCCS(=O)(CCCC(F)(F)C(F)(F)F)=NC(=O)Cn4ccnc4)C3C1CCC2O (stereo not shown) is ____.
Result :: 0.012

(I) CC12CCC3c4ccc(O)cc4CC(CCCCCCCCCS(=O)(CCCC(F)(F)C(F)(F)F)=NC(=O)CCN4CCOCC4)C3C1CCC2O (stereo not shown)
(II) CC12CCC3c4ccc(O)cc4CC(CCCCCCCCCS(=O)(CCCC(F)(F)C(F)(F)F)=NC(=O)CN4CCOCC4)C3C1CCC2O (stereo not shown)
(III) CN(C)CC(=O)N=S(=O)(CCCCCCCCCC1Cc2cc(O)ccc2C2CCC3(C)C(O)CCC3C12)CCCC(F)(F)C(F)(F)F (stereo not shown)
Query :: Sequence the entries by PDI, beginning with the highest number. # respond with the labels, arranged in the requested order
Result :: I, III, II
(I: 0.093, III: 0.039, II: 0.014)
